Hi! I'm sharing some pKi results obtained with human serotonin transporter (Homo sapiens).
Sequence (P31645 whole entry): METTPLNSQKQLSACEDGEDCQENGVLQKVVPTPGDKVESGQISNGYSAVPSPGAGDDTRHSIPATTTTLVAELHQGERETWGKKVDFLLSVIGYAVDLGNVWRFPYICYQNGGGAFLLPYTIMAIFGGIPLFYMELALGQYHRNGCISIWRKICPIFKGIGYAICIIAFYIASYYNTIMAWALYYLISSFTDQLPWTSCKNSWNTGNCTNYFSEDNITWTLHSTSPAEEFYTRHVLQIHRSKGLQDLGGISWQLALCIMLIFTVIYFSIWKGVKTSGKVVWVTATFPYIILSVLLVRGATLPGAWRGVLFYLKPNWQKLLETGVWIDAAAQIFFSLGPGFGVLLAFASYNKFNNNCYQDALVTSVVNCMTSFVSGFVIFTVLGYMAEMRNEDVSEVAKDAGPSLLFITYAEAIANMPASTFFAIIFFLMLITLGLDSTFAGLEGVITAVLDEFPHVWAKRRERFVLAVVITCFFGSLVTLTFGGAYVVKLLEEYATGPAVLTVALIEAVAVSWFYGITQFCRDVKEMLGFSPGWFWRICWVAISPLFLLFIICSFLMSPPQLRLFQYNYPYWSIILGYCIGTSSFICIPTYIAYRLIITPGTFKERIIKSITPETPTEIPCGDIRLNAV
Answers are plain numbers, as −log10 of the molar value.

// below: answered compounds
| compound | measured-endpoint | value |
| --- | --- | --- |
| CNC1CCN(c2nc(-c3ccc(F)cc3F)c3ccccc3n2)C1 (stereo not drawn) [Example 150] | pKi | 5.57 |
| C[C@@H]1CNCCN1c1nc(-c2cccc(F)c2F)c2ccccc2n1 [Example 87] | pKi | 7.00 |
| Cl.Fc1ccccc1-c1nc(N2CCNCC2)nc2ccccc12 [Example 20, hydrochloride] | pKi | 7.92 |

Quick one: give me pKi for each item below, same order please.
1. Fc1ccc2c(-c3ccccc3C(F)(F)F)nc(N3CCNCC3)nc2c1 [Example 160]
2. Fc1ccc(-c2nc(N3CCNCC3)nc3ccc(F)cc23)c(F)c1 [Example 122]
3. CN1CCN(c2nc(-c3ccc(F)c(F)c3)c3ccc(F)cc3n2)CC1 [Example 112]
4. Fc1ccc2c(-c3cccc(F)c3F)nc(N[C@@H]3CCNC3)nc2c1 [Example 116]
5. Fc1ccc(-c2nc(N3CCNCC3)nc3cc(F)c(F)cc23)c(F)c1 [Example 147]

Out:
1: 6.01; 2: 7.81; 3: 6.69; 4: 6.02; 5: 7.59

###

experimental-target: human norepinephrine transporter (Homo sapiens, UniProt P23975)
Sequence (P23975 whole entry): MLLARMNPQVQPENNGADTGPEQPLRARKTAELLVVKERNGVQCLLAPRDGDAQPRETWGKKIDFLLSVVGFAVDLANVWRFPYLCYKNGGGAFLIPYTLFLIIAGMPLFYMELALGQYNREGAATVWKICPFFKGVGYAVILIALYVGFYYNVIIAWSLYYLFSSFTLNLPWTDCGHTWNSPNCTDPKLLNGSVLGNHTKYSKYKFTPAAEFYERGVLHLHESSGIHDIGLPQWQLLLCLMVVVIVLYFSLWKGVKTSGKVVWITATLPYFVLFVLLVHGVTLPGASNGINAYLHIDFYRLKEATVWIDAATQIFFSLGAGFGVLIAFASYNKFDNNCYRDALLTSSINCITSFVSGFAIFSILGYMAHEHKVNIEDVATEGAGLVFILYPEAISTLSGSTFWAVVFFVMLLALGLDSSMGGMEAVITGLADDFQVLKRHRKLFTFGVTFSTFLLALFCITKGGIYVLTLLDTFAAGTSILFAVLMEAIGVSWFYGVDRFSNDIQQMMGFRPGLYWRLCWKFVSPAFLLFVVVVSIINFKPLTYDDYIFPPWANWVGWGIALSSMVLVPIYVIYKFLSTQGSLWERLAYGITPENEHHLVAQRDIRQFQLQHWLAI
For each record, write down the corresponding Ki.
Answers are plain numbers, in nM.

// below: answered molecules
| molecule | display-unit | Ki |
| --- | --- | --- |
| Clc1ccc2nc(N3CCNCC3)nc(-c3ccccc3)c2c1 [Example 128] | nM | 35.5 |
| Cl.N[C@H]1CCN(c2nc(-c3ccccc3F)c3ccccc3n2)C1 [Example 34, hydrochloride] | nM | 3.8 |
| Cl.N[C@H]1CCCN(c2nc(-c3ccccc3F)c3ccccc3n2)C1 [Example 40, hydrochloride] | nM | 18 |
| CNC1CCN(c2nc(-c3c(F)cccc3F)c3ccccc3n2)CC1 [Example 151] | nM | 384 |

Quick one: give me Ki for each item below, same order please.
1. c1ccc(-c2nc(N3CC4CC3CN4)nc3ccccc23)cc1 (stereo not drawn) [Example 80]
2. CN1CCC(c2nc(-c3ccccc3Cl)c3ccccc3n2)CC1 [Example 44]
3. Cl.NCCC1CCCN(c2nc(-c3ccccc3)c3ccccc3n2)C1 (stereo not drawn) [Example 11, hydrochloride]
4. COC(=O)C1(c2nc(-c3ccccc3)c3ccccc3n2)CCNCC1.Cl [Example 50, hydrochloride]
5. COc1cccc(-c2nc(N3CCNCC3)nc3ccccc23)c1 [Example 90]

Out:
[9.5, 62.5, 80.5, 9.8, 14.6]

###

Structures can show the parent of a compound that is named as a salt.
Hi! I'm sharing some Ki results obtained with human norepinephrine transporter (Homo sapiens, UniProt P23975).
Numbers only, in nM.

| molecule | measured-endpoint | display-unit | value |
| --- | --- | --- | --- |
| CN1CCC(c2nc(-c3c(F)cccc3Cl)c3ccccc3n2)CC1 [Example 74] | Ki | nM | 22.9 |

Quick one: give me Ki for each item below, same order please.
1. c1ccc(-c2nc(N3CC4CNCC4C3)nc3ccccc23)cc1 (stereo not drawn) [Example 81]
2. Fc1cccc(-c2nc(N3CCNCC3)nc3ccccc23)c1 [Example 60]
3. Fc1cccc(-c2nc(N3CCCNCC3)nc3ccccc23)c1F [Example 57]
4. Fc1ccc(-c2nc(N[C@@H]3CCNC3)nc3cc(F)ccc23)c(F)c1 [Example 143]

Out:
[61, 4.1, 4, 17.9]

Quick one: give me Ki for each item below, same order please.
1. Clc1ccccc1-c1nc(N2CCNCC2)nc2ccccc12 [Example 22, hydrochloride]
2. Fc1ccc2c(-c3ccccc3C(F)(F)F)nc(N3CCNCC3)nc2c1 [Example 160]
3. NCCNc1nc(-c2ccccc2)c2ccccc2n1 [Example 13, hydrochloride]
4. C[C@@H]1CNCCN1c1nc(-c2c(F)cccc2F)c2ccc(F)cc2n1 [Example 104]
5. Fc1ccc(-c2nc(N3CCNCC3)nc3ccc(F)cc23)c(F)c1 [Example 122]

Out:
4.8
60.7
89.2
36.4
12.1

Quick one: give me Ki for each item below, same order please.
1. Cl.Fc1cccc(Cl)c1-c1nc(N2CCNCC2)nc2ccccc12 [Example 36, hydrochloride]
2. Fc1ccccc1-c1nc(N2CC3CCCC(C2)N3)nc2ccccc12 [Example 33, hydrochloride]
3. Cl.Fc1ccccc1-c1nc(N2CCCNCC2)nc2ccccc12 [Example 21, hydrochloride]
4. c1ccc(Cc2nc(N3CCNCC3)nc3ccccc23)cc1 [Example 28, hydrochloride]
5. C[C@H]1CNCCN1c1nc(-c2c(F)cccc2Cl)c2ccccc2n1 [Example 85]

Out:
1. 4
2. 19
3. 3.7
4. 93.4
5. 26.3

###

Where a name gives a salt, the structure may show the parent alone.
For each record, write down the corresponding melting point.

Quick one: give me melting point for each item below, same order please.
1. Cl.c1ccc(-c2nc(C3CCCNC3)nc3ccccc23)cc1 (centres unmarked) (hydrate or solvate)
2. CN1CCN(c2nc(-c3cccs3)c3ccccc3n2)CC1.O=C(O)C(=O)O
3. C[C@H]1CNCCN1c1nc(-c2ccccc2)c2ccccc2n1.Cl
4. Fc1ccc(-c2nc(N3CCNCC3)nc3ccccc23)c(Cl)c1 (as salt: salt)
5. CN1CCN(c2nc(-c3ccc(F)cc3)c3ccccc3n2)CC1

Out:
231 to 232 °C
216 to 217 °C
154 to 157 °C
248 to 251 °C
130 to 131 °C

###

Hi! I'm sharing some Ki results obtained with human serotonin transporter (Homo sapiens).
Answers are plain numbers, in nM.

// below: answered compounds
| compound-smiles | Ki / nM |
| --- | --- |
| C[C@H]1CNCCN1c1nc(-c2c(F)cccc2Cl)c2ccccc2n1 | 265 |
| Clc1ccc2nc(N3CCNCC3)nc(-c3ccccc3)c2c1 | 11.4 |
| Brc1ccc2nc(N3CCNCC3)nc(-c3ccccc3)c2c1 | 31.4 |
| Fc1cccc2c(-c3ccccc3)nc(N3CCNCC3)nc12 | 1590 |
| CN1CCN(c2nc(-c3ccc(F)c(F)c3)c3ccccc3n2)CC1 | 1090 |

Quick one: give me Ki for each item below, same order please.
1. Fc1cc2nc(N3CCNCC3)nc(-c3cccc(F)c3F)c2cc1F
2. COc1ccccc1-c1nc(N2CCNCC2)nc2cc(F)ccc12
3. Fc1cccc(F)c1-c1nc(N[C@@H]2CCNC2)nc2ccccc12

Out:
[47.2, 76.5, 2900]

###

Hi! I'm sharing some Ki results obtained with UniProtKB P23975.
Show the value, then the unit it is measured in.

| compound-smiles | value |
| --- | --- |
| Fc1ccc(-c2nc(N3CCNCC3)nc3cc(F)c(F)cc23)c(F)c1 | 28 nM |

Quick one: give me Ki for each item below, same order please.
1. Fc1ccccc1-c1nc(C2(c3ccccc3)CCNCC2)nc2ccccc12
2. C[C@H]1CNCCN1c1nc(-c2ccc(F)cc2F)c2ccccc2n1

Out:
1. 63.4 nM
2. 19.4 nM

###

Hi! I'm sharing some pKi results obtained with human norepinephrine transporter (Homo sapiens, UniProt P23975).
Counter-ions that a name gives are not always drawn.
One number for each entry, as −log10 of the molar value.

| compound | measured-endpoint | value |
| --- | --- | --- |
| Fc1ccc2c(-c3ccc(Cl)cc3Cl)nc(N3CCNCC3)nc2c1 [Example 120] | pKi | 7.02 |
| Clc1ccc2c(-c3ccccc3)nc(N3CCNCC3)nc2c1 [Example 89] | pKi | 7.31 |
| CC1CN(c2nc(-c3ccccc3)c3ccccc3n2)C(C)CN1.Cl (stereo not shown) [Example 9, hydrochloride] | pKi | 7.66 |
| Fc1cccc(F)c1-c1nc(N[C@H]2CCNC2)nc2ccccc12 [Example 58] | pKi | 8.10 |
| c1ccc(-c2nc(C3CCNCC3)nc3ccccc23)cc1 [Example 42, hydrochloride] | pKi | 7.88 |

Quick one: give me pKi for each item below, same order please.
1. COC(=O)C1(c2nc(-c3ccccc3F)c3ccccc3n2)CCNCC1.Cl [Example 51, hydrochloride]
2. Fc1cccc(Cl)c1-c1nc(C2CCNCC2)nc2ccccc12 [Example 75]
3. Fc1cccc2c(-c3ccccc3)nc(N3CCNCC3)nc12 [Example 133]
4. COc1ccccc1-c1nc(N2CCNCC2)nc2ccccc12 [Example 23, hydrochloride]
5. Fc1ccc(-c2nc(C3CCNCC3)nc3ccccc23)cc1 [Example 68]
6. C[C@@H]1CNCCN1c1nc(-c2cccc(F)c2F)c2ccccc2n1 [Example 87]
7. Clc1ccccc1-c1nc(C2CCNCC2)nc2ccccc12 [Example 45, hydrochloride]
8. C[C@H]1CNCCN1c1nc(-c2ccccc2)c2ccccc2n1.Cl [Example 15, hydrochloride]

Out:
1. 7.82
2. 8.23
3. 7.66
4. 7.53
5. 7.39
6. 7.70
7. 8.06
8. 8.34
